tested.system: Large T antigen (Simian virus 40) (UniProt P03070)
Sequence (P03070 whole entry, looked up): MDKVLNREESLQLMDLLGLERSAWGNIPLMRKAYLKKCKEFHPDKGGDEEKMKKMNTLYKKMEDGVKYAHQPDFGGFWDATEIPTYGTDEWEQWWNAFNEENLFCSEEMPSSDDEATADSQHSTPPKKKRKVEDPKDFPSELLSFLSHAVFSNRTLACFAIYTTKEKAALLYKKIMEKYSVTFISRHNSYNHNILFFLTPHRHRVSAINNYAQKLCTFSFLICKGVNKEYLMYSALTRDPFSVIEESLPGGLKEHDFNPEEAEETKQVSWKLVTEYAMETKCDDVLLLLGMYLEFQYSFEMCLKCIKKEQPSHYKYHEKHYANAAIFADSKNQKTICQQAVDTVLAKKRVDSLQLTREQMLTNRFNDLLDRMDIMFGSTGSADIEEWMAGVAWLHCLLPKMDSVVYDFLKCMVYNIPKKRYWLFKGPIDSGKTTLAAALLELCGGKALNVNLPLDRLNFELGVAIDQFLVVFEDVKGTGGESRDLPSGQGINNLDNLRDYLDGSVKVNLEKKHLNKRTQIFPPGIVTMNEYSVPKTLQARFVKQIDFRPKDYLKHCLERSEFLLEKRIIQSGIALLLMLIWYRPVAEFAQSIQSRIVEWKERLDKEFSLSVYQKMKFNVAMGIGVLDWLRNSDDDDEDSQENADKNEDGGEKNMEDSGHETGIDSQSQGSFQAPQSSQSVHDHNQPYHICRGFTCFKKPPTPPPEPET
procedure.details: SV40 large T antigen inhibitors, biochemical (AID 1903)
test.parameters: SV40 large T antigen ATPase/helicase inhibition assay; at 20 µM; active compounds read high
Screen size: about 310,000 compounds; about 1,200 (0.39%) were called active. These entries were drawn from the full list. Entries with a potency or affinity are not part of this list.
Assignment: determine reported inhibition for the given compounds.
Please respond with the number in % and leave the unit unwritten.

For the compound shown here, "O=C(O)c1cnc(-c2ccccc2)nc1Sc1ccc(Cl)cc1" , give the reported inhibition. 12.4

For the compound shown here, "Cc1ccc(-c2cc3c(n2-c2ccc(C(=O)O)cc2)CCCC3=O)cc1" , give the reported inhibition. 11

For the compound shown here, "COc1cc2[nH]c3c(=O)n4c(nc3c2cc1OC)SCCC4" , give the reported inhibition. 7.73

For the compound shown here, "CN1C(=O)N(C)c2ccc(C=O)c3cccc1c23" , give the reported inhibition. 1.16
